Origin of the recorded values: patent US9695155B2

Reported Plant response rating, Ragweed values for the following molecules.
# Tested on: ragweed
# experimental.details: Test A postemergence
# Type: in vivo, Ambrosia elatior
# applied.conditions: 31 g ai/ha, 0 to 100 scale, 0 no effect, 100 complete control

input.smiles	target.or.test.system	Plant response rating, Ragweed
FCc1cccc(Oc2ncc(F)cn2)c1-n1cc(I)cn1	ragweed	20
FC(F)Oc1cnn(-c2c(Br)cccc2Oc2ncc(Cl)cn2)c1	ragweed	10
N#Cc1cnn(-c2c(Cl)cccc2Oc2ncc(Cl)cn2)c1	ragweed	20
O=Cc1cn(-c2ccccc2Oc2ncc(Cl)cn2)nn1	ragweed	0
FC(F)(F)c1cnn(-c2c(Oc3ncc(Cl)cn3)cccc2-c2ncon2)c1	ragweed	20
Fc1cccc(Oc2ncc(Cl)cn2)c1-n1cc(C(F)F)nn1	ragweed	80
CC(C)Oc1cnn(-c2c(C#N)cccc2Oc2ncc(Cl)cn2)c1	ragweed	50
FCc1cccc(Oc2ncc(Br)cn2)c1-n1cc(Cl)cn1	ragweed	10
Fc1cnc(Oc2ccccc2-n2cc(SC(F)(F)F)cn2)nc1	ragweed	0
CCCOc1cnn(-c2c(F)cccc2Oc2ncc(Cl)cn2)c1	ragweed	0
